target of assay: Mitogen-activated protein kinase kinase kinase kinase 2 (Homo sapiens)
run conditions: at 10 µM
// assign Criterion met if residual activity falls strictly below 70%, else Criterion not met (ties count as Criterion not met)

Take the compound Cc1cccc(-c2[nH]c(C(C)(C)C)nc2-c2ccc3c(c2)OCO3)n1 and say whether its residual activity is less than 70%.
Criterion not met

Query compound follows.
Take the compound O=C1NC(=O)/C(=C\c2ccc3nccnc3c2)S1 and say whether its residual activity is less than 70%.
Criterion met

---

target of assay: Protein kinase C beta type (Homo sapiens)
run conditions: at 1 µM
What residual activity was measured for each of the following?
Answers are plain numbers, in %.

// worked examples, residual activity included
// residual activity value for CC#CC(=O)Nc1cc2c(Nc3ccc(F)c(Cl)c3)ncnc2cn1 : 101

// residual activity value for O=C1Nc2cc(Br)ccc2/C1=C1/Nc2ccccc2/C1=N\O : 102

// residual activity value for CC(=O)c1ccc(N2CCOCC2)cc1O : 100

// residual activity value for N#C/C(=C(\N)Sc1ccc(N)cc1)c1ccccc1C(F)(F)F : 114

// residual activity value for O=c1c2ccccc2[nH]c(=S)n1CCN1CCC(=C(c2ccc(F)cc2)c2ccc(F)cc2)CC1 : 101

// residual activity value for CO[C@@H]1[C@H](N(C)C(=O)c2ccccc2)C[C@H]2O[C@]1(C)n1c3ccccc3c3c4c(c5c6ccccc6n2c5c31)C(=O)NC4 : 61

// residual activity value for c1ccc2c(-c3ccncc3)c[nH]c2c1 : 98

// residual activity value for O=C1c2ccccc2-[n+]2ccc3c([nH]c4ccccc43)c21 : 93

Consider the following items and state reported residual activity for each.
1. O=C1NC(=O)c2c1c1c3ccccc3[nH]c1c1[nH]c3cc(Br)ccc3c21
2. Cn1cc(/C=C2\C(=O)Nc3ccc(S(N)(=O)=O)cc32)c2ccccc21
3. CCN(CC)CCCCN1c2ccccc2Oc2ccc(Cl)cc21

1. 104
2. 103
3. 103

Consider the following items and state reported residual activity for each.
1. O=Nc1c(-c2c(O)[nH]c3ccccc23)[nH]c2ccccc12
2. Cc1cncc2cccc(S(=O)(=O)N3CCCN(C(=O)CN)C[C@H]3C)c12
3. COc1cc2ncnc(Nc3ccc(O)c(Br)c3)c2cc1OC

95
95
94

Consider the following items and state reported residual activity for each.
1. Cc1ccc(S(=O)(=O)/C=C/C#N)cc1
2. CC[n+]1c(/C=C/N(C)c2ccccc2)n(-c2ccccc2)c2ccc(-c3nc4ccccc4s3)cc21
3. Nc1nc(Nc2ccc(S(N)(=O)=O)cc2)nn1C(=S)Nc1c(F)cccc1F

104
96
88

Consider the following items and state reported residual activity for each.
1. CCOc1cc2ncnc(Nc3cccc(Br)c3)c2cc1OCC
2. c1ccc(-c2n[nH]c3c2oc2ccccc23)cc1
3. CN(C)c1ccc(/C=C2\C(=O)Nc3ccccc32)cc1
4. CNc1cc2c(Nc3cccc(Br)c3)ncnc2cn1
5. c1ccc(-c2n[nH]cc2-c2ccnc3ccccc23)nc1

1. 100
2. 96
3. 94
4. 104
5. 101

Consider the following items and state reported residual activity for each.
1. CO[C@H]1C[C@@H]2CC[C@@H](C)[C@@](O)(O2)C(=O)C(=O)N2CCCC[C@H]2C(=O)O[C@H]([C@H](C)C[C@@H]2CC[C@@H](O)[C@H](OC)C2)CC(=O)[C@H](C)/C=C(\C)[C@@H](O)[C@@H](OC)C(=O)[C@H](C)C[C@H](C)/C=C/C=C/C=C/1C
2. COc1cc2ncc(-c3ccccc3)nc2cc1OC
3. O=C(Nc1cccc(Nc2nccc(Nc3cccc(C(F)(F)F)c3)n2)c1)C1CC1
4. N#CC(C#N)=C(N)/C(C#N)=C/c1ccc(O)cc1
5. COc1ccc(OC)c2c(=S)c3ccccc3[nH]c12
6. COc1cc2ncnc(Nc3ccc(NC(=O)c4ccccc4)cc3)c2cc1OC

[105, 97, 99, 96, 106, 100]

Consider the following items and state reported residual activity for each.
1. O=C(O)c1ccc2c3c1cccc3c(=O)n1c3ccccc3nc21
2. COc1ccc(C(=O)Nc2sc3c(c2C(N)=O)CCCC3)cc1OC
3. Oc1c2ccccc2c2c3c(cccc13)N=N2
4. O=c1cc(-c2cccc3c2Sc2ccccc2S3)oc(N2CCOCC2)c1
5. Cc1ccc(NC2=CC(=O)c3sc(C)nc3C2=O)cc1
6. COc1cccc(-c2cc(=O)c3ccccc3o2)c1N
7. C[C@@H](N)[C@H]1CC[C@H](C(=O)Nc2ccncc2)CC1
8. O=C1Nc2ccccc2/C1=C1/Nc2ccccc2/C1=N\OCCC(O)CO (configuration not stated)

115
111
108
104
112
121
81
97

// residual activity value for Oc1n[nH]c2nnc(-c3c(-c4ccccc4)nn4ccccc34)cc12 : 103
